# Tested on: NCI/ADR-RES ovarian
# measurement protocol: NCI-60 one-dose screen, 48 h
# condition: 10 µM unless noted
The panel holds about 83,000 compounds, 20% with a hit somewhere; the sample as a whole holds those more often. The source made the active and inactive calls. How the source made its calls: active means growth percent below 10; inactive means the rest.
Permitted responses: 1 = active, -1 = inactive

Reference set (5 entries):
compound=N#Cc1c(-c2cccc(O)c2O)cc(-c2ccc3ccccc3c2)[nH]c1=O test_system="NCI/ADR-RES ovarian" assigned_label=-1
compound="C=C1CC[C@@H]2[C@]3(C)COC(c4cn(-c5ccccc5)nc4-c4cccc([N+](=O)[O-])c4)O[C@@H]3CC[C@@]2(C)[C@@H]1C/C=C1/C(=O)OC[C@H]1O (some centres not stated)" test_system="NCI/ADR-RES ovarian" assigned_label=1
compound=O=C(/C=C/c1ccc(-c2ccccc2)cc1)c1nc2ccccc2n1Cc1ccc(Br)cc1 test_system="NCI/ADR-RES ovarian" assigned_label=-1
compound=COc1cccc(COc2ccc(NC(=O)Nc3ccc(Cl)c(C(F)(F)F)c3)cc2)c1 test_system="NCI/ADR-RES ovarian" assigned_label=-1
compound=Cn1cc(-c2cc3nc(-c4cn(C)c5ncccc45)cc(N)n3n2)c2ccccc21 test_system="NCI/ADR-RES ovarian" assigned_label=-1

Request: For `COc1ccc2[nH]c(=O)c(CSc3nccc(-c4ccc(OC)c(OC)c4)n3)cc2c1` , what call appears in the results of this test?
Result: -1

Request: Check the results log: what was the call for `O=C(NNc1nc2cc(F)ccc2n2c(C(=O)N3CCN(C4CC4)CC3)ccc12)c1ncccn1` ?
Result: -1

Request: # fetch the recorded call for `Cc1cc(=O)oc2cc(OCCCOc3ccc(/C=C/C(=O)Nc4ccccc4N)cc3)ccc12` here
Result: -1

Request: Given COc1ccc(C2=NN(c3ccccc3)C(c3ccc(OCc4ccccc4)c(OC)c3)C2)cc1OC (configuration not stated) , state the outcome it received in this test.
Result: -1

Request: Just curious, what result did `Clc1cccc(Cl)c1/C=C/c1cc(/C=C/c2ccc(Br)cc2)c2ccccc2n1` get here?
Result: -1

Request: Per the assay record, what outcome was assigned to `COc1ccc(-c2nc3cc(C)ccc3n2CC(=O)N=Nc2c(O)[nH]c3ccc(Br)cc23)cc1` ?
Result: 1

Request: Recorded test call requested for `CSc1ccc(C(=O)Nc2ccc3nnn(/C(C#N)=C/c4ccccn4)c3c2)cc1`
Result: -1

Request: How was `COc1cccc(-c2nc(Nc3ccc(S(N)(=O)=O)cc3)c3ccccc3n2)c1` classified in this test?
Result: -1

###

# Tested on: A498 renal
# measurement protocol: NCI-60 one-dose screen, 48 h (100 = growth as untreated, 0 = no growth, -100 = all killed)
# condition: 10 µM unless noted
This is part of a sample that, as a whole, favours compounds with a hit. Of some 83,000 tested, about 20% had one in any assay.
experimental readout: growth (%)
Numbers only, in %.

A selection of reference data follows.
compound=O=C(Nc1cccc(-n2cnc3cc(-c4ccc(O)cc4)ccc32)c1)C1CC1 experimental_readout=growth endpoint_result=78.2
compound=S=C(Nc1ccc(OCc2nc3ccccc3[nH]2)cc1)NC1CCCCC1 experimental_readout=growth endpoint_result=150
compound="C#CCOc1cc(N(CC)CC)ccc1C(C(=O)NC(C)(C)C)N(C(=O)C1CCc2cc(F)ccc2O1)c1ccc(F)cc1 (stereo unspecified)" experimental_readout=growth endpoint_result=78.5
compound="CN(C)CCOc1ccc(C(=O)C2[C@H](c3ccc(Cl)cc3)[C@@H](c3ccccc3)NC23C(=O)Nc2ccccc23)cc1 (stereo partly specified)" experimental_readout=growth endpoint_result=112
compound=CC(C)c1ccc2c(N)c(C(=O)Nc3ccc(C(F)(F)F)cn3)sc2n1 experimental_readout=growth endpoint_result=115

Consider the following items and state reported growth for each.
1. C=C1CCC2C3(C)COC(c4ccccc4)OC3CCC2(C)C1CC(NCc1ccccc1)C1=CCOC1=O (stereo unspecified)
2. CN(C)c1ccnc(NCCCSC(c2ccccc2)(c2ccccc2)c2ccccc2)c1
3. COc1ccc2[nH]cc(-c3nnc(N)nc3-c3cn(C)c4ncc(Br)cc34)c2c1
4. C=C1CCC2C3(C)COC(c4cccs4)OC3CCC2(C)C1CC(Sc1ccccc1)C1=CCOC1=O (stereo unspecified)
5. Cn1cc(-c2nnc(N)nc2-c2c[nH]c3ccc(Br)cc23)c2cc(Br)cnc21
6. N/C(=N\N=C\c1ccc([N+](=O)[O-])cc1)c1c(N)nc(=S)[nH]c1-c1ccc(Cl)cc1Cl

Result:
1: 76.6; 2: 89.6; 3: 45.5; 4: 133; 5: 39.4; 6: 160

List reported growth for each of these compounds:
1. N#Cc1c(-c2cccc(O)c2O)cc(-c2ccc3ccccc3c2)[nH]c1=O
2. O=C1CC(Sc2n[nH]c(-c3ccncc3)n2)C(=O)N1c1ccc(Br)cc1 (stereo unspecified)
3. COc1ccc2oc(=O)c(C3(C)NC(=O)c4c(/C=C/C(=O)OC(C)(C)C)cccc4N3)cc2c1 (stereo unspecified)
4. COc1cc2c(c(OC)c1OC)C(=O)CC(c1cccc(NC(=O)c3cc(NC(=O)[C@H](C)N)ccc3Cl)c1)O2 (stereo partly specified)
5. COc1ccc(-c2ccnc(SCc3cc4cc(OC)ccc4[nH]c3=O)n2)cc1

Result:
1: 82.1; 2: 111; 3: 57.8; 4: 80.7; 5: 79.6

###

# System: LOX IMVI melanoma
# measurement protocol: NCI-60 one-dose screen, 48 h (100 = growth as untreated, 0 = no growth, -100 = all killed)
# condition: 10 µM
This is part of a sample that, as a whole, favours compounds with a hit. Of some 83,000 tested, about 20% had one in any assay.
experimental readout: growth (%)
Answers are plain numbers, in %.

Past entries and their recorded results:
compound=COc1ccc2c(c1)c(-c1cc(N)n3nc(-c4cn(C)c5ccccc45)cc3n1)cn2C test_system="LOX IMVI melanoma" experimental_readout=growth endpoint_result=-87.1
compound=O=C(Cn1c(/C=C/c2ccccc2)nc2ccccc2c1=O)Nc1ccccc1 test_system="LOX IMVI melanoma" experimental_readout=growth endpoint_result=43.2
compound=N/C(=N\N=C\c1ccc([N+](=O)[O-])cc1)c1c(N)nc(=S)[nH]c1-c1ccc(Cl)cc1Cl test_system="LOX IMVI melanoma" experimental_readout=growth endpoint_result=96.5
compound=COc1ccc(-c2nc3cc(C)ccc3n2CC(=O)N=Nc2c(O)[nH]c3ccc(Br)cc23)cc1 test_system="LOX IMVI melanoma" experimental_readout=growth endpoint_result=-81.9

For every listed record, write down its growth.
1. CN(C)c1nc(NCCNS(=O)(=O)c2ccc(C3=Nc4c(N)nc(N)nc4NC(c4ccc(Cl)cc4)C3)cc2)nc(Nc2ccc(F)cc2)n1 (configuration not stated)
2. NS(=O)(=O)c1ccc(-n2cc(-c3cccc(NC(=O)c4cc(N5CCOCC5)cc(C(F)(F)F)c4)c3)nn2)cc1
3. CCOC(=O)C1=C(N)N(c2ccccc2)C2=C(C(=O)CC(C)(C)C2)C1c1ccccc1Cl (configuration not stated)
4. C=C1CC[C@@H]2[C@]3(C)COC(c4ccccc4)O[C@@H]3CC[C@@]2(C)[C@@H]1C/C=C1/C(=O)OCC1OC(C)=O (some centres not stated)
5. CCS(=O)(=O)N1CCCC(C(=O)Nc2nc3ccc(NC(=O)c4ccc(F)c(OC)c4F)cc3s2)C1 (configuration not stated)
6. COC1=C[C@]23CCC(=O)N2CCc2cc4c(cc2[C@@H]3[C@@H]1OC(=O)[C@H](C)O)OCO4
7. COC(=O)/C=C/c1cccc2c1C(=O)NC(C)(c1cc3cc4ccccc4cc3oc1=O)N2 (configuration not stated)
8. COc1ccc2c(c1)c(-c1cc3nc(-c4cn(C)c5ncccc45)cc(N)n3n1)cn2C

Result:
[-56.4, 46.8, 85.4, -100, 67.6, -57.2, 6.32, -100]

###

# Tested on: SR leukemia
# measurement protocol: NCI-60 one-dose screen, 48 h
# condition: 10 µM unless noted
# Description: Growth inhibition of the SR human tumor cell line is measured as a screen for anti-cancer activity. Cells are grown in 96 well plates and exposed to the test compound for 48 hours. Compounds are tested at a single concentration, which is 10^-5 M for most compounds. The reported endpoint is percent growth (GI% or GIPRCNT), where numbers from 0 - 100% represent growth inhibition, and numbers from -100% - 0 represent cell death. For example, a value of 40 represents 60% growth inhibition. […]
This is part of a sample that, as a whole, favours compounds with a hit. Of some 83,000 tested, about 20% had one in any assay. Active and inactive are the calls of the source. Rule for the calls: active = growth percent below 10; inactive = the rest.
The reply should name one outcome from active, inactive

Some solved cases for reference:
compound=Cc1cc(=O)oc2cc(OCCCCOc3ccc(/C=C/C(=O)Nc4ccccc4N)cc3)ccc12 assigned_label=inactive
compound=Cn1cc(-c2cc3nc(-c4cn(C)c5ncc(Br)cc45)cc(N)n3n2)c2cc(Cl)ccc21 assigned_label=active
compound=O=C1CCCc2cc(OCC(=O)N3CCCCC3)ccc2N1 assigned_label=inactive
compound="CCOC(=O)C1=C(N)N(c2ccccc2)C2=C(C(=O)CC(C)(C)C2)C1c1ccccc1Cl (centres undefined)" assigned_label=inactive
compound="C=C1CCC2C3(C)COC(c4ccc(F)cc4)OC3CCC2(C)C1C/C=C1/C(=O)OCC1O (centres undefined)" assigned_label=active
compound=CN1C(=O)/C(=C/c2ccc(C(=O)Nc3ncc(Cc4ccc(Cl)cc4Cl)s3)cc2)SC1=S assigned_label=inactive
compound="Cc1ccccc1[C@H]1C(C(=O)c2ccc(Cl)cc2)C2(N[C@@H]1c1ccccc1)C(=O)Nc1ccccc12 (some centres undefined)" assigned_label=active
compound=CCOc1ccc(-c2c(C#N)c(-c3ccc(Cl)cc3)nc3n[nH]c(-c4ccc(Cl)cc4)c23)cc1OC assigned_label=inactive
compound=COc1ccc(-c2nc3cc(C)ccc3n2CC(=O)N=Nc2c(O)[nH]c3ccc(Br)cc23)cc1 assigned_label=active
compound=CC(C)CSc1nc(NCCc2c[nH]c3ccccc23)c(C#N)c(-c2ccc(Cl)cc2)n1 assigned_label=active

Request: Hello, I am checking results. What call was entered for CCOC(=O)C(N=Nc1ccc(S(=O)(=O)N=C(N)N)cc1)C(C)=O (centres undefined) ?
Result: inactive

Request: GET /call?item= `Cn1cc(-c2cc(N)n3nc(-c4c[nH]c5ccccc45)cc3n2)c2cc(Br)cnc21` returns the recorded outcome of this test.
Result: active
